As shown below, each of these molecules has a reported MIC value.
# System: Staphylococcus aureus
# PROCEDURE_TEXT: Antibacterial activity against clinically isolated penicillin-resistant Staphylococcus aureus by broth microdilution method
# Assay type: functional
QUANTITY: MIC

SMILES_REPRESENTATION	MEASUREMENT
CC[C@H]1OC(=O)[C@@H](C)[C@H](O[C@H]2C[C@@](C)(OC)[C@@H](OC(=O)NNC(=O)/C=C/c3ccco3)[C@H](C)O2)[C@@H](C)[C@H](O[C@H]2O[C@@H](C)C[C@@H](N(C)C)[C@@H]2O)[C@@](C)(O)C[C@H](C)CN(C)[C@@H](C)[C@@H]2OC(=O)O[C@@]12C	4 µg/mL
CC[C@@H]1OC(=O)[C@H](C)[C@@H](O[C@H]2C[C@@](C)(OC)[C@@H](OC(=O)NNC(=O)/C=C/c3ccccc3OC)[C@H](C)O2)[C@@H](C)[C@@H](O[C@@H]2O[C@H](C)C[C@H](N(C)C)[C@H]2O)[C@](C)(O)C[C@@H](C)CN(C)[C@H](C)[C@@H](OC(=O)NCc2ccc(OC)cc2)[C@]1(C)O	4 µg/mL
